# IC50 (nM) Untreated, HUVEC NFkB translocation assay values compiled below
# System name: ST2 on human umbilical vein endothelial cells (human) (UniProt Q01638)
# Sequence (Q01638 19-556): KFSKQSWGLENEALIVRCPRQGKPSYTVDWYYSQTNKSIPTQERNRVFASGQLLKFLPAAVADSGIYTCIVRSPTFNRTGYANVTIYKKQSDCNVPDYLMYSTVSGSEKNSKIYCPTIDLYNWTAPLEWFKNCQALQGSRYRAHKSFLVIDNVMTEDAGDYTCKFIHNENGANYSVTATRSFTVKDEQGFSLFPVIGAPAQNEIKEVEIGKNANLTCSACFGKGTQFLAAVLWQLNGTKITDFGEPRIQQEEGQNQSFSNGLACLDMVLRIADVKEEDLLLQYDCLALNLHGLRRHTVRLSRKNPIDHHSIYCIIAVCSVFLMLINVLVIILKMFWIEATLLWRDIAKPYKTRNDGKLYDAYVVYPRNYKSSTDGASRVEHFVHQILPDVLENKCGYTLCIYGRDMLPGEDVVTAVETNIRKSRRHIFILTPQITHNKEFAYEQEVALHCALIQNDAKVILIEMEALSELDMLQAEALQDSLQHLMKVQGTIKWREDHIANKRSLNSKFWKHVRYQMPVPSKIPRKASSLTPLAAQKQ
# Protocol: cell-based or functional assay
Respond numerically; units are nM and should not be typed.

Answered cases to consult:
{"Binder": "IL33-04 (ligand) MHHHHHHHHHHAAGLNDIFEAQKIEWHEAAIEGRSITGISPITEYLASLSTYNDQSITFALEDESYEIYVEDLKKDEKKDKVLLSYYESQHPSNESGDGVDGKMLMVTLSPTKDFWLHANNKEHSVELHKCEKPLPDQAFFVLHNMHSNCVSFESKTDPGVFIGVKDNHLALIKVDSSENLCTENILFKLSET", "Value reported": 0.17}
{"Binder": "IL33-09 (ligand) MHHHHHHHHHHAAGLNDIFEAQKIEWHEAAIEGRSITGISPITEYLASLSTYNDQSITFALEDESYEIYVEDLKKDEKKDKVLLSYYESQHPSNESGDGVDGKMLMVTLSPTKDFWLHANNKEHSVELHKCEKPLPDQAFFVLHNMHSNSVSFECKTDPGVFIGVKDNHLALIKVDSSENLSTENILFKLSET", "Value reported": 0.2}
{"Binder": "IL33-13 (ligand) MHHHHHHHHHHAAGLNDIFEAQKIEWHEAAIEGRSITGISPITEYLASLSTYNDQSITFALEDESYEIYVEDLKKDEKKDKVLLSYYESQHPSNESGDGVDGKMLMVTLSPTKDFWLHANNKEHSVELHKSEKPLPDQAFFVLHNMHSNSVSFECKTDPGVFIGVKDNHLALIKVDSSENLSTENILFKLSET", "Value reported": 0.08}
{"Binder": "IL33-05 (ligand) MHHHHHHHHHHAAGLNDIFEAQKIEWHEAAIEGRSITGISPITEYLASLSTYNDQSITFALEDESYEIYVEDLKKDEKKDKVLLSYYESQHPSNESGDGVDGKMLMVTLSPTKDFWLHANNKEHSVELHKCEKPLPDQAFFVLHNMHSNCVSFECKTDPGVFIGVKDNHLALIKVDSSENLSTENILFKLSET", "Value reported": 0.1}
{"Binder": "IL33-12 (ligand) MHHHHHHHHHHAAGLNDIFEAQKIEWHEAAIEGRSITGISPITEYLASLSTYNDQSITFALEDESYEIYVEDLKKDEKKDKVLLSYYESQHPSNESGDGVDGKMLMVTLSPTKDFWLHANNKEHSVELHKSEKPLPDQAFFVLHNMHSNSVSFESKTDPGVFIGVKDNHLALIKVDSSENLCTENILFKLSET", "Value reported": 0.39}

Consider the additional binder presented here.
Lab note: IL33-03 (ligand) MHHHHHHHHHHAAGLNDIFEAQKIEWHEAAIEGRSITGISPITEYLASLSTYNDQSITFALEDESYEIYVEDLKKDEKKDKVLLSYYESQHPSNESGDGVDGKMLMVTLSPTKDFWLHANNKEHSVELHKCEKPLPDQAFFVLHNMHSNSVSFECKTDPGVFIGVKDNHLALIKVDSSENLCTENILFKLSET gave IC50 (nM) Untreated, HUVEC NFkB translocation assay of 0.16
